The origin of these recorded values is ChEMBL document CHEMBL1128386.

species: Oryctolagus cuniculus; experiment: Activity against [Ca2+]-ATPase assay in rabbit myocardial membrane.; type: cell membranes; settings: Myocardium
measured_quantity: Activity (µM)
// return numeric value only (unit: µM, not printed)

# annotated cases, reported Activity shown
item_smiles	Activity [µM]
Cc1nc(O)c(Br)cc1-c1ccncc1	6.6
Cc1cnccc1-c1cc(C#N)c(O)nc1C	3.3
Cc1cnccc1-c1cnc(O)c(C#N)c1	0.5
Cc1nc(O)c(N)cc1-c1ccncc1	6
Nc1cc(-c2ccncc2)c[nH]c1=O	1.4

What Activity value was documented for this molecule, Cc1cnccc1-c1cnc(O)c(N)c1 ?
0.03

What Activity value was documented for this molecule, Cc1[nH]c(=O)c(C#N)cc1-c1ccncc1 ?
10.7
